# experimental_system: OpuAR W^93F (Bacillus infantis, UniProt U5LJR5, W93F)
# assay_protocol: biochemical
# Format: binding
# condition_context: OpuAR variant W93F; read-out: Kd
readout_type: pKd
Scale explanation: pKd corresponds to minus log10 of a concentration expressed in moles per litre.

Note to self: pKd recorded for C[N+](C)(C)CC(=O)[O-] was 3.65

---

# experimental_system: OpuAR R^100F (Bacillus infantis, UniProt U5LJR5, R100F)
# Sequence (U5LJR5 entry or part of it R100F): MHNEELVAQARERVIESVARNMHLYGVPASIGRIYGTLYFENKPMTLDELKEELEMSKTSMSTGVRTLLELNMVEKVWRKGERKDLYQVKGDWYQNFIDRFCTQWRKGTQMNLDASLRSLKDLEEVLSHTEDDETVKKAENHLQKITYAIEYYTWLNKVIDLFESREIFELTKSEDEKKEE
# assay_protocol: biochemical
# Type: binding
# condition_context: OpuAR variant R100F; read-out: Kd
readout_type: pKd
Scale explanation: pKd corresponds to minus log10 of a concentration expressed in moles per litre.

With OpuAR R^100F (Bacillus infantis, UniProt U5LJR5, R100F) as the test system, C[N+](C)(C)CC(=O)[O-] showed pKd of 3.52

Where these numbers come from: paper PMC6207618
